- ASSAY_CONTEXT: pH 6.8
REPORTED_ENDPOINT: Increase (fold)

P: CC1Cc2ccccc2N1NC(=O)c1ccc(Cl)c(S(N)(=O)=O)c1 (centres unmarked) [indapamide]
Q: CN1CC(=O)N2[C@H](c3ccc4c(c3)OCO4)c3[nH]c4ccccc4c3C[C@@H]2C1=O [tadalafil]
[Q] Looking only at measured Increase, which entry is lower, P or Q ? State your choice using its label.
[A] Q

I: COc1ccc(-c2nc3ccc(C4=NNC(=O)CC4C)cc3[nH]2)cc1 (centres unmarked) [pimobendan]
II: CCC1=C(C)CN(C(=O)NCCc2ccc(S(=O)(=O)NC(=O)N[C@H]3CC[C@H](C)CC3)cc2)C1=O [glimepiride]
[Q] Looking only at measured Increase, which entry is lower, I or II ? State your choice using its label.
[A] II

* * *

- EXPERIMENT_SUMMARY: physchem
- ASSAY_CONTEXT: 37 °C, pH 7, aqueous buffer, thermodynamic from solid
REPORTED_ENDPOINT: solubility (µg/mL)

[Q] Looking for the measured solubility of CCC1=C(C)CN(C(=O)NCCc2ccc(S(=O)(=O)NC(=O)N[C@H]3CC[C@H](C)CC3)cc2)C1=O [glimepiride] , can you help?
[A] 1

[Q] Looking for the measured solubility of O=C1C(O)=C([C@H]2CC[C@H](c3ccc(Cl)cc3)CC2)C(=O)c2ccccc21 [atovaquone] , can you help?
[A] 3

[Q] Looking for the measured solubility of Cc1ccc(S(=O)(=O)NC(=O)NN2CC3CCCC3C2)cc1 (stereo not shown) [gliclazide] , can you help?
[A] 50

1: COc1ccc(-c2nc3ccc(C4=NNC(=O)CC4C)cc3[nH]2)cc1 (stereo not shown) [pimobendan]
2: CN1CC(=O)N2[C@H](c3ccc4c(c3)OCO4)c3[nH]c4ccccc4c3C[C@@H]2C1=O [tadalafil]
[Q] Which shows the larger solubility value: 1 or 2 ? State your choice using its label.
[A] 1
(1: 210 µg/mL, 2: 110 µg/mL)

P: COc1ccc(Cl)cc1C(=O)NCCc1ccc(S(=O)(=O)NC(=O)NC2CCCCC2)cc1 [glibenclamide]
Q: CC1Cc2ccccc2N1NC(=O)c1ccc(Cl)c(S(N)(=O)=O)c1 (stereo not shown) [indapamide]
[Q] Which shows the larger solubility value: P or Q ? State your choice using its label.
[A] Q

* * *

- EXPERIMENT_SUMMARY: physchem
- ASSAY_CONTEXT: pH 6.8, aqueous buffer, Solubility without polymer
REPORTED_ENDPOINT: solubility (µg/mL)

a: CN1CC(=O)N2[C@H](c3ccc4c(c3)OCO4)c3[nH]c4ccccc4c3C[C@@H]2C1=O
b: O=C1C(O)=C([C@H]2CC[C@H](c3ccc(Cl)cc3)CC2)C(=O)c2ccccc21
c: CCC1=C(C)CN(C(=O)NCCc2ccc(S(=O)(=O)NC(=O)N[C@H]3CC[C@H](C)CC3)cc2)C1=O [glimepiride]
d: CC1Cc2ccccc2N1NC(=O)c1ccc(Cl)c(S(N)(=O)=O)c1 (centres unmarked) [indapamide]
[Q] Parameters: sort_by = solubility; order = desc; input = items above. Answer format: the labels, in the requested order.
[A] d, a, c, b
